Data origin, for the record: patent US20240417436A1

assay_system: T1, IL-2 receptor βγ complex on pan T cells (human, UniProt P14784 27-551; P31785 23-369)
T1 sequence (looked up) 1: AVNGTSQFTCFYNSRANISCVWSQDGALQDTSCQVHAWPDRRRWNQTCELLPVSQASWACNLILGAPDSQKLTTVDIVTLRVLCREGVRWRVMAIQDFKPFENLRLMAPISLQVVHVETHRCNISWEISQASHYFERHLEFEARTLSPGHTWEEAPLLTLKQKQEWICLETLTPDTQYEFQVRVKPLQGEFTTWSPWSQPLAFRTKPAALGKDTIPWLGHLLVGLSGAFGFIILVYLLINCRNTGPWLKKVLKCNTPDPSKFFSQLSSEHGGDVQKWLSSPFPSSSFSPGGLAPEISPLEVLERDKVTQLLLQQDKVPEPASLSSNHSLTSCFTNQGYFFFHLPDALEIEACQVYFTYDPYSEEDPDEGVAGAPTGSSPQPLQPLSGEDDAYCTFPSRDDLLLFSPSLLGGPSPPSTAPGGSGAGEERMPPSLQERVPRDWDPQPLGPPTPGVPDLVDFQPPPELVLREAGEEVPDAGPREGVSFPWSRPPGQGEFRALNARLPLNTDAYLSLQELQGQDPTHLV
T1 sequence (looked up) 2: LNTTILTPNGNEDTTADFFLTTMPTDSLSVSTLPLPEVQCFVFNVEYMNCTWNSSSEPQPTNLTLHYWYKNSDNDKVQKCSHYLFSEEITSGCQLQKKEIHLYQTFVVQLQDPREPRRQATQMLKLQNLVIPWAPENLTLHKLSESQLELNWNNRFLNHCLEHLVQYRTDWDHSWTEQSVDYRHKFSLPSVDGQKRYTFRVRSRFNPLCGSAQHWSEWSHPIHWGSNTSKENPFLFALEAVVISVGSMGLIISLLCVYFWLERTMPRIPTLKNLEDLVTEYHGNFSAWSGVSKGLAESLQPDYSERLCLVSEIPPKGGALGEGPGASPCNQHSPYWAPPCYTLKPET
test_description: cell-based or functional assay
Bridges are numbered along the chain shown (N, C = ends). Primed or numbered codes have the meaning given here. [ ]: non-standard residue; d: D form. Ygp = O-(8x polyethylene glycol-amino)-tyrosine; Yn3 = O-(9x polyethylene glycol-azido)-tyrosine; cleavable moiety = not defined here; PEG4′ = 4x polyethylene glycol; PEG9″ = 9x polyethylene glycol; hSer = N[C@@H](CCO)C(=O)O; Nle = CCCC[C@H](N)C(=O)O
quantity_name: Average EC50, pSTAT5 assay in pan T cells, intact molecule (nM)
Reply with just the number (in nM).

Could you share which Average EC50, pSTAT5 assay in pan T cells, intact molecule value was measured for CMP-305 (ligand, linker 15-23 via cleavable moiety; ends not checked; also: cleavable peptide of the bridge not defined) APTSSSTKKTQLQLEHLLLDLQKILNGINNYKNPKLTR[Nle]L[hSer][Yn3]KF[Ygp][Nle]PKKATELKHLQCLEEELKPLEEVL[hSer]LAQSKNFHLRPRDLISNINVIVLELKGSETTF[hSer]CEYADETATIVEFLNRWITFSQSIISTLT ?
128

Again, but for CMP-304 (ligand, linker N-29 via PEG9″; ends not checked) PLGLAGAPTSSSTKKTQLQLEHLLLDLQEILNGINNYKNPKLTR[Nle]L[hSer][Yn3]KF[Ygp][Nle]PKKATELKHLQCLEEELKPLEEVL[hSer]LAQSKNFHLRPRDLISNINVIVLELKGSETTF[hSer]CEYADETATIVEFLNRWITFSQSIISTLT
110

Same for CMP-303 (ligand, linker N-29 via PEG4′; ends not checked) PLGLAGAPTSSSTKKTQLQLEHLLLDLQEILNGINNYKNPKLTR[Nle]L[hSer][Yn3]KF[Ygp][Nle]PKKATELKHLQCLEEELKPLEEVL[hSer]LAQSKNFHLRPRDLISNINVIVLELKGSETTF[hSer]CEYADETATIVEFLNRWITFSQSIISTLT
97.9

Further, for CMP-168 (ligand, disulfide 58-105 (inferred); bridge 9-23; not fully specified (residue 23, bridges)) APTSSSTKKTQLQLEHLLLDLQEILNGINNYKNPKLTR[Nle]L[hSer][Yn3]KF[Ygp][Nle]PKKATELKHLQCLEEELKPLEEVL[hSer]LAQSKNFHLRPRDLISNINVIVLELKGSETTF[hSer]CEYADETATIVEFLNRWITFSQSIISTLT ?
144
